// values below are reported relative viability
- Test system: SW 1573
- measurement.protocol: relative viability (nuclei count vs DMSO), 5 days (fraction); higher = more cells survive
- condition.summary: first compound 0.3162 µM
Answer with the value's number alone.

Known relative viability results, listed for orientation:
INSERT INTO results (compound, observed) VALUES
  ('NC(=O)Nc1cc(-c2cccc(F)c2)sc1C(=O)N[C@H]1CCCNC1 [AZD7762] + O=C(c1cc(Cc2n[nH]c(=O)c3ccccc23)ccc1F)N1CCN(C(=O)C2CC2)CC1 [Olaparib] (partner 8 µM)', 0.408),
  ('NC(=O)Nc1cc(-c2cccc(F)c2)sc1C(=O)N[C@H]1CCCNC1 [AZD7762] + CC(=O)c1c(C)c2cnc(Nc3ccc(N4CCNCC4)cn3)nc2n(C2CCCC2)c1=O [Palbociclib] (partner 0.5 µM)', 0.377),
  ('NC(=O)Nc1cc(-c2cccc(F)c2)sc1C(=O)N[C@H]1CCCNC1 [AZD7762] + CS(=O)(=O)N1CCN(Cc2cc3nc(-c4cccc5[nH]ncc45)nc(N4CCOCC4)c3s2)CC1 [Pictilisib] (partner 1 µM)', 0.54),
  ('NC(=O)Nc1cc(-c2cccc(F)c2)sc1C(=O)N[C@H]1CCCNC1 [AZD7762] + O=C(CCCCCCC(=O)Nc1ccccc1)NO [Vorinostat] (partner 1 µM)', 0.648);

GET /values?readout=relative viability&item= NC(=O)Nc1cc(-c2cccc(F)c2)sc1C(=O)N[C@H]1CCCNC1 [AZD7762] + CCNC(=O)c1noc(-c2cc(C(C)C)c(O)cc2O)c1-c1ccc(CN2CCOCC2)cc1 [Luminespib] (partner 0.01 µM) 0.169

What value of relative viability has been reported for the following compound? NC(=O)Nc1cc(-c2cccc(F)c2)sc1C(=O)N[C@H]1CCCNC1 [AZD7762] + N=C(N)NC(=N)NCCc1ccccc1 [Phenformin] (partner 250 µM) 0.297
